- System: Vero E6 infected with SARS-CoV-2
- EXPERIMENT SUMMARY: inhibition of SARS-CoV-2 cytopathic effect; higher = more antiviral protection, active = above 15
- SETUP CONDITIONS: 10000 nM; 48 h
Can you tell me inhibition of SARS-CoV-2 cytopathic effect for the items I'm about to list?
Answers are plain numbers, in %.

Some solved cases for reference:
molecule=CCOc1ccccc1C(=O)O observed_measurement=-0.66
molecule=Oc1ncnc2[nH]ncc12 observed_measurement=-7.04
molecule="O=C(OCC(O)CO)c1ccccc1Nc1ccnc2cc(Cl)ccc12 (centres undefined)" observed_measurement=-2.34
molecule=CN(C)CC[C@@](O)(c1ccccc1)c1ccccc1Cl observed_measurement=2.42
molecule="O=C(OCCO)c1ccccc1O [2-hydroxyethyl-salicylate]" observed_measurement=-2.92
molecule=CN(C)[C@@H]1C(O)=C(C(N)=O)C(=O)[C@@]2(O)C(O)=C3C(=O)c4c(O)cccc4[C@@](C)(O)[C@H]3C[C@@H]12 observed_measurement=1.35

Required: inhibition of SARS-CoV-2 cytopathic effect, one value per molecule below.
1. CC(=O)O[C@H]1CC[C@@]2(C)C(=CC[C@@H]3[C@@H]2CC[C@]2(C)C(c4cccnc4)=CC[C@@H]32)C1 [abiraterone-acetate]
2. O=NO [sodium-nitrite]
3. Cc1cc(I)ccc1Nc1c(C(=O)NOCC2CC2)cc(F)c(F)c1F
4. CSc1nc(-c2ccc(F)cc2)c(-c2ccnc(N[C@@H](C)c3ccccc3)c2)[nH]1
5. COc1ccc(C2(O)CCC(N3CC[C@@H](NC(=O)CNC(=O)c4cccc(C(F)(F)F)c4)C3)CC2)cn1 (some centres undefined)
6. C=CCN1C[C@H](C(=O)N(CCCN(C)C)C(=O)NCC)C[C@@H]2c3cccc4[nH]cc(c34)C[C@H]21
7. Cc1ccc(C)c(OCCCC(C)(C)C(=O)O)c1

result:
1: -0.75; 2: 0.91; 3: -4.88; 4: 1.96; 5: -0.44; 6: -14.1; 7: -0.46

Required: inhibition of SARS-CoV-2 cytopathic effect, one value per molecule below.
1. COc1cc(C(=O)N(CC[C@H]2CCCN2C)C/C(C)=C/c2ccccc2F)cc(OC)c1OC (racemic)
2. CCn1cc(C(=O)O)c(=O)c2cnc(N3CCCC3)nc21
3. CC(CCc1ccc(O)cc1)NCC(O)c1ccc(O)cc1 (centres undefined)

result:
[-1.76, -1.75, 1.53]

====

Can you tell me inhibition of SARS-CoV-2 cytopathic effect for the items I'm about to list?
- System: Vero E6 infected with SARS-CoV-2
- EXPERIMENT SUMMARY: inhibition of SARS-CoV-2 cytopathic effect; higher = more antiviral protection, active = above 15
- SETUP CONDITIONS: 100 nM; 48 h
Answers are plain numbers, in %.

compound=COCc1nnc(N2CC(Oc3ccc(F)cc3Cl)C2)n1-c1ccc(OC)nc1 units=% observed_measurement=-0.12
compound="C[C@@H]([C@H](O)c1ccc(O)cc1)N1CCC(Cc2ccccc2)CC1 (racemic)" units=% observed_measurement=0.52
compound=COc1cc2c(CCNC(C)=O)c[nH]c2cc1Cl units=% observed_measurement=-1.78
compound=Cc1ccc2c(c1)[C@H]1CN(C)CC[C@H]1N2 units=% observed_measurement=1.27
compound=Nc1nc(=O)[nH]cc1F units=% observed_measurement=0.5

query: Form field: reported inhibition of SARS-CoV-2 cytopathic effect of CNC(=O)c1ccc2c(c1)S(=O)(=O)c1ccccc1C2=O
result: 1.63

Reference source for all entries: the supplement of paper PMC13380429
